System: Plasmodium falciparum
Assay: GSK_TCMDC: Inhibition of Plasmodium falciparum 3D7 in whole red blood cells, using parasite LDH activity as an index of growth. Test compounds present at 2uM
Assay type: functional
This listing pairs molecules with measured Inhibition.
Numbers only here, please. The scale is %.

The examples below pair each entry with its known result.
molecule	result
COc1ccc(OC)c(C=CC(=O)NC2CCC(CN3CCC(c4c[nH]c5ccccc45)CC3)CC2)c1 (centres undefined)	98
CC(C)CNCc1cccc(-c2ccc(CN(C(=O)NC3CCCCC3)C3CCN(Cc4ccccc4)CC3)cc2)c1.O=C(O)C(F)(F)F	97
O=C(C=Cc1ccc(F)c(Br)c1)NC1CCC(CN2CCC(c3c[nH]c4ccccc34)CC2)CC1 (centres undefined)	100

The measured Inhibition associated with "CC[C@H]1CN2CC[C@H]1C[C@H]2[C@H](O)c1cc(-c2ccc(F)cc2C)nc2ccc(OC)cc12.Cl" reads 99

---

Test system: Plasmodium falciparum
Assay: GSK_TCMDC: Inhibition of Plasmodium falciparum 3D7 in whole red blood cells, using parasite LDH activity as an index of growth. Test compounds present at 2uM
Assay type: functional
measured-quantity: Inhibition
Include the unit right after the number.

The examples below pair each entry with its known result.
molecule	result
COc1ccc(OC)c(C(O)CNC(C)C)c1.Cl (centres undefined)	96%
CCCCCc1cc(O)c2c(c1)OC(C)(C)CC2C1=CCN(Cc2cnc3ccccc3c2)CC1.Cl.O (centres undefined)	98%
O=C(/C=C/c1ccc(Cl)c(Cl)c1)NCCCCCN1C2CCC1CC(c1c[nH]c3ccccc13)C2 (centres undefined)	98%
Cc1ccc(CC(C)(C)NCC(O)c2cccc(C(F)(F)F)c2)cc1.O=C(O)/C=C/C(=O)O (centres undefined)	97%
CC(Cc1ccc(OCCCCOc2ccccc2)cc1)NCCCn1ccnc1 (centres undefined)	100%

The measured Inhibition associated with "C=C[C@H]1CN2CC[C@@H]1C[C@H]2[C@H](O)c1cc(-c2ccc(F)cc2)nc2ccc(OC)cc12.Cl" reads 99%

The measured Inhibition associated with CCCc1ccc2c(c1O)CCC(N(CCC)CCC)C2.Cl (centres undefined) reads 90%

The measured Inhibition associated with "C/C=C1\CN2CC[C@H]1C[C@@H]2[C@@H](O)c1ccnc2ccc(O)cc12" reads 98%

The measured Inhibition associated with "COCCNCc1cccc(-c2ccccc2CN(C(=O)Nc2ccccc2)C2CCN(Cc3ccccc3)CC2)c1.O=C(O)C(F)(F)F" reads 96%

---

Tested on: Plasmodium falciparum
Assay: GSK_TCMDC: Inhibition of Plasmodium falciparum 3D7 in whole red blood cells, using parasite LDH activity as an index of growth. Test compounds present at 2uM
Assay type: functional
measured-quantity: Inhibition (%)
Numbers only here, please. The scale is %.

The examples below pair each entry with its known result.
compound	result
Br.CC[C@H]1CN2CC[C@H]1C[C@H]2[C@H](O)c1ccnc2ccc(OC)cc12	100
CC[C@H]1CN2CC[C@@H]1C[C@H]2[C@H](O)c1cc[n+]([O-])c2ccc(OC)cc12	95
CC[C@H]1CN2CC[C@H]1C[C@H]2[C@H](O)c1cc(N2CCCC(C(=O)N(CC)CC)C2)nc2ccc(OC)cc12 (some centres not stated)	100
CCOC(C(=O)OCC1CCCN1C(C)C)(c1ccccc1)c1ccccc1 (configuration not stated)	98

The measured Inhibition associated with "COc1cccc(C2(C)CCN(CCCCNC(=O)c3ccc(NC(=O)c4ccc(Cl)cc4)cc3)CC2)c1.Cl" reads 97

The measured Inhibition associated with "CC[C@H]1CN2CC[C@H]1C[C@H]2[C@H](O)c1cc(-c2cccc(Cl)c2)nc2ccc(OC)cc12.Cl" reads 98

The measured Inhibition associated with CC(Cc1ccc(S(=O)(=O)N(C(C)C)C(C)C)cc1)NCC(O)c1cccc(C(F)(F)F)c1.Cl (configuration not stated) reads 96

---

Tested on: Plasmodium falciparum
Experiment: GSK_TCMDC: Inhibition of Plasmodium falciparum Dd2 in whole red blood cells, using parasite LDH activity as an index of growth. Test compounds present at 2uM
Type: functional
This listing pairs molecules with measured Inhibition.
Numbers only here, please. The scale is %.

molecule	Inhibition, %
NCc1ccc(-c2ccccc2CN(C(=O)Nc2ccccc2)C2CCN(Cc3ccccc3)CC2)cc1.O=C(O)C(F)(F)F	35

Form field, Inhibition with Plasmodium falciparum, item "CC(C)CNCc1ccc(-c2cccc(CN(C(=O)Nc3ccccc3)C3CCN(Cc4ccccc4)CC3)c2)cc1.O=C(O)C(F)(F)F" : 95

Form field, Inhibition with Plasmodium falciparum, item "Cc1ccc(C[C@@H](C)NC[C@H](O)c2cccc(C(F)(F)F)c2)cc1.O=C(O)/C=C/C(=O)O" : 79

Form field, Inhibition with Plasmodium falciparum, item CC(Cc1ccc([N+](=O)[O-])cc1)NCC(O)c1cccc(C(F)(F)F)c1 (stereo not drawn) : 92

Form field, Inhibition with Plasmodium falciparum, item "CN(c1cc(NC(=O)c2ccc(F)cc2)ccn1)C1CCN(Cc2cccc(O)c2)CC1.O=C(O)C(F)(F)F" : 82

Form field, Inhibition with Plasmodium falciparum, item CC(Cc1ccc(SCCSc2ccccc2)cc1)NCC(O)c1cccc(Cl)c1 (stereo not drawn) : 96

Form field, Inhibition with Plasmodium falciparum, item COCCSc1ccc(CC(C)NCC(O)c2cccc(Cl)c2)cc1.Cl (stereo not drawn) : 73

Form field, Inhibition with Plasmodium falciparum, item Cc1ccc(CC(C)NCC(O)c2cccc([N+](=O)[O-])c2)cc1 (stereo not drawn) : 85

Form field, Inhibition with Plasmodium falciparum, item "COc1ccc(C=CC(=O)N2CCC(CN3CCC(c4c[nH]c5ccccc45)CC3)CC2)cc1OC" : 4

Form field, Inhibition with Plasmodium falciparum, item COc1ccc(C(=O)C2CC2CN2CC=C(c3c[nH]c4cccc(Br)c34)CC2)cc1.O=C(O)C(F)(F)F (stereo not drawn) : 67

Form field, Inhibition with Plasmodium falciparum, item O=C(NC1CCC(CN2CCC(c3c[nH]c4ccccc34)CC2)CC1)[C@H]1Cc2ccccc2CN1 (stereo partly drawn) : 35

Form field, Inhibition with Plasmodium falciparum, item "CCCCCCCc1cc(O)c2c(c1)OC(C)(C)c1ccncc1-2.Cl" : 52

---

Tested on: Plasmodium falciparum
Assay: GSK_TCMDC: Inhibition of Plasmodium falciparum Dd2 in whole red blood cells, using parasite LDH activity as an index of growth. Test compounds present at 2uM
Assay type: functional
measured-quantity: Inhibition (%)
Numbers only here, please. The scale is %.

The examples below pair each entry with its known result.
molecule	Inhibition [%]
CCc1ccc(CC(C)NCC(O)c2ccccc2)cc1.O (configuration not stated)	77
CC[C@H]1CN2CC[C@H]1C[C@H]2[C@H](O)c1cc(-c2ccc(F)cc2C)nc2ccc(OC)cc12.Cl	100
O=C(/C=C/c1ccc(Cl)c(Cl)c1)NC1CCC(N2CCC(c3c[nH]c4ccc(O)cc34)CC2)CC1 (configuration not stated)	16
CC(=O)N(Cc1ccccc1-c1cccc(CNCc2ccc3c(c2)OCO3)c1)C1CCN(Cc2ccccc2)CC1.O=C(O)C(F)(F)F	44

The measured Inhibition associated with "Cc1nc(C)c(-c2ccc(Oc3ccc(OC(F)(F)F)cc3)cc2)c(OC(=O)N(CCNC(C)C)C(C)C)c1Br.Cl" reads 97

The measured Inhibition associated with "CC[C@H]1CN2CC[C@@H]1C[C@H]2[C@H](O)c1ccnc2ccc(OC)cc12" reads 61

The measured Inhibition associated with "O=C(C=Cc1ccccc1O)N1CCC(CN2CCC(c3c[nH]c4ccccc34)CC2)CC1" reads 43

---

System: HepG2
Assay: GSK_TCMDC: Percent inhibition of human HepG2 cell line. Test compounds present at 10uM.
Type: functional
This listing pairs molecules with measured Inhibition.
Numbers only here, please. The scale is %.

The examples below pair each entry with its known result.
molecule	Inhibition (%)
N#Cc1c(Cl)cccc1Oc1ccc(S(=O)(=O)N2CCC(CN3CCC(c4c[nH]c5ccccc45)CC3)CC2)cc1	36
CN(C)CCC(=O)c1ccccc1.Cl	11
CCCCC1(NC(=O)[C@H](CC(C)C)Nc2ccc(C#N)c3ccccc23)CCCCC1.O=C(O)C(F)(F)F	37
COc1ccc2[nH]cc(C3CCN(Cc4ccc(NC(=O)c5ccc(-c6ccccc6)cc5)cc4)CC3)c2c1	24

The measured Inhibition associated with "CC[C@H]1CN2CC[C@@H]1C[C@H]2[C@H](O)c1cc(N2CCC(O)(c3ccccc3)CC2)nc2ccc(OC)cc12" reads 14

The measured Inhibition associated with COC(=O)c1ccc(CC(C)NCC(O)c2cc(Cl)c(N)c(Cl)c2)cc1 (centres undefined) reads 0

The measured Inhibition associated with "Cn1cc(CN2CCC(CCOC(c3ccccc3)c3ccccc3)CC2)cn1" reads 27

The measured Inhibition associated with "Cl.O=C(CC1CCCC1)N(CC1CCN(Cc2ccc(C(F)(F)F)cc2)CC1)c1ccc(N2CCOCC2)c(F)c1" reads 10

The measured Inhibition associated with O=C(CSc1ccc(Cl)cc1)NC1CCC(CN2CCC(c3c[nH]c4ccccc34)CC2)CC1 (centres undefined) reads 41

Source: ChEMBL document CHEMBL1157539
